- assayed.system: T1, CRBN, Q96SW2;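 note: pooled lentiviral library of zinc finger degron-EGFP fusions in mCherry-positive Jurkat cells, FACS-sorted after compound exposure, with degron abundance counted by next-generation sequencing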
- T1 chain: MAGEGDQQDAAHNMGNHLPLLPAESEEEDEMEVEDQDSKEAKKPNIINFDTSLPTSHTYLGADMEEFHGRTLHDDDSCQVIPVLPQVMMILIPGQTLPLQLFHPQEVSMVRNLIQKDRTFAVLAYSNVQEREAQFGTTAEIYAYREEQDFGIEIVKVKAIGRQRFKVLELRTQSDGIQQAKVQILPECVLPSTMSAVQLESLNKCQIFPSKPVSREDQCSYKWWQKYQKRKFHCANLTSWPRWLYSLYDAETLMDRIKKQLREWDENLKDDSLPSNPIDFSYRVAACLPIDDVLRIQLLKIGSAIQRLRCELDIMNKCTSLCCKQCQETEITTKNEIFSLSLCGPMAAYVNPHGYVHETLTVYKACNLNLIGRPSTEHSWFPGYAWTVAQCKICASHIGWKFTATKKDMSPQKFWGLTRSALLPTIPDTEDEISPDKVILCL
- assay.overview: log2 fold change of degron read counts, EGFP-low vs EGFP+ sorted cells (limma voom), compound-induced degradation; higher = more compound-induced degradation of the degron-EGFP fusion; degrons are variants of IKZF1/3 zinc finger 2; compound dose not given here
- measurement.parameters: Jurkat; 18 h; compound: compound 19 (5-tert-butyl-thalidomide)
Whole data set: some 8,300 sequences, median “log2 fold change of degron read counts, EGFP-low vs EGFP+ sorted cells (limma voom), compound-induced degradation” near -1.1, cut for the highest 2% near 3.2. The list comes from a sample in which the highest values are over-represented; it also holds close analogues and randomly drawn sequences.
Measured log2 fold change of degron read counts determines class: zone 1 = under -2, zone 2 = from -2 up to 0.3, zone 3 = 0.3 and over

input.sequence	group
FVCPICGAEFTQKGNLLRHIKL [46F_47V_49P_50I_52G_53A_54E_55F_67L_, Q9UKT9]	zone 2
FFCDQCGANFTQKGNLLRHIKL [46F_47F_49D_50Q_52G_53A_54N_55F_67L_, Q9UKT9]	zone 2
FQCPICGAEFTQKGNLLRHIKL [46F_47Q_49P_50I_52G_53A_54E_55F_67L_, Q9UKT9]	zone 3
FKCPICGRFFTQKGNLLRHIKL [46F_47K_49P_50I_52G_53R_54F_55F_67L_, Q9UKT9]	zone 2
LVCEICGFSCTQKGNLLRHIKL [46L_47V_49E_50I_52G_53F_54S_55C_67L_, Q9UKT9]	zone 3
FECNVCGACFTQKGNLLRHIKL [46F_47E_49N_50V_52G_53A_54C_55F_67L_, Q9UKT9]	zone 2
FECPICGHPFTQKGNLLRHIKL [46F_47E_49P_50I_52G_53H_54P_55F_67L_, Q9UKT9]	zone 1
FECNQCGAHFTQKGNLLRHIKL [46F_47E_49N_50Q_52G_53A_54H_55F_67L_, Q9UKT9]	zone 1
LQCEICGFSCTQKGNLLRHIKL [46L_47Q_49E_50I_52G_53F_54S_55C_67L_, Q9UKT9]	zone 3
FTCNQCGANFTQKGNLLRHIKL [46F_47T_49N_50Q_52G_53A_54N_55F_67L_, Q9UKT9]	zone 1
FMCEQCGAPFTQKGNLLRHIKL [46F_47M_49E_50Q_52G_53A_54P_55F_67L_, Q9UKT9]	zone 2
LDCPICGFCCTQKGNLLRHIKL [46L_47D_49P_50I_52G_53F_54C_55C_67L_, Q9UKT9]	zone 2
LHCPICGFCCTQKGNLLRHIKL [46L_47H_49P_50I_52G_53F_54C_55C_67L_, Q9UKT9]	zone 3
FNCNICGAEFTQKGNLLRHIKL [46F_47N_49N_50I_52G_53A_54E_55F_67L_, Q9UKT9]	zone 2
FACNQCGAFFTQKGNLLRHIKL [46F_47A_49N_50Q_52G_53A_54F_55F_67L_, Q9UKT9]	zone 2
LICPICGFCCTQKGNLLRHIKL [46L_47I_49P_50I_52G_53F_54C_55C_67L_, Q9UKT9]	zone 3
LRCNQCGFVCTQKGNLLRHIKL [46L_47R_49N_50Q_52G_53F_54V_55C_67L_, Q9UKT9]	zone 2
FYCNICGAEFTQKGNLLRHIKL [46F_47Y_49N_50I_52G_53A_54E_55F_67L_, Q9UKT9]	zone 3
LICNQCGFPCTQKGNLLRHIKL [46L_47I_49N_50Q_52G_53F_54P_55C_67L_, Q9UKT9]	zone 1
FICNQCGRAFTQKGNLLRHIKL [46F_47I_49N_50Q_52G_53R_54A_55F_67L_, Q9UKT9]	zone 1
FQCNICGAEFTQKGNLLRHIKL [46F_47Q_49N_50I_52G_53A_54E_55F_67L_, Q9UKT9]	zone 2
LYCPICGFCCTQKGNLLRHIKL [46L_47Y_49P_50I_52G_53F_54C_55C_67L_, Q9UKT9]	zone 3
FECPQCGAFFTQKGNLLRHIKL [46F_47E_49P_50Q_52G_53A_54F_55F_67L_, Q9UKT9]	zone 1
FMCEICGHVFTQKGNLLRHIKL [46F_47M_49E_50I_52G_53H_54V_55F_67L_, Q9UKT9]	zone 1
FACEICGRYFTQKGNLLRHIKL [46F_47A_49E_50I_52G_53R_54Y_55F_67L_, Q9UKT9]	zone 3
FQCDQCGANFTQKGNLLRHIKL [46F_47Q_49D_50Q_52G_53A_54N_55F_67L_, Q9UKT9]	zone 1
LSCEICGFSCTQKGNLLRHIKL [46L_47S_49E_50I_52G_53F_54S_55C_67L_, Q9UKT9]	zone 3
FRCSVCGHLFTQKGNLLRHIKL [46F_47R_49S_50V_52G_53H_54L_55F_67L_, Q9UKT9]	zone 1
LQCPICGFCCTQKGNLLRHIKL [46L_47Q_49P_50I_52G_53F_54C_55C_67L_, Q9UKT9]	zone 3
